Target: HSV-1 ribonucleotide reductase (Human herpesvirus 1, UniProt P08543)
Construct: HSV-1 ribonucleotide reductase (partially purified) was obtained from quiescent BHK-21/C13 cells infected with strain F HSV-1 virus; endogenous in cells; host or cells: quiescent BHK-21/C13 (hamster) cells infected with HSV-1 strain F; partially purified enzyme preparation
Sequence (P08543 whole entry): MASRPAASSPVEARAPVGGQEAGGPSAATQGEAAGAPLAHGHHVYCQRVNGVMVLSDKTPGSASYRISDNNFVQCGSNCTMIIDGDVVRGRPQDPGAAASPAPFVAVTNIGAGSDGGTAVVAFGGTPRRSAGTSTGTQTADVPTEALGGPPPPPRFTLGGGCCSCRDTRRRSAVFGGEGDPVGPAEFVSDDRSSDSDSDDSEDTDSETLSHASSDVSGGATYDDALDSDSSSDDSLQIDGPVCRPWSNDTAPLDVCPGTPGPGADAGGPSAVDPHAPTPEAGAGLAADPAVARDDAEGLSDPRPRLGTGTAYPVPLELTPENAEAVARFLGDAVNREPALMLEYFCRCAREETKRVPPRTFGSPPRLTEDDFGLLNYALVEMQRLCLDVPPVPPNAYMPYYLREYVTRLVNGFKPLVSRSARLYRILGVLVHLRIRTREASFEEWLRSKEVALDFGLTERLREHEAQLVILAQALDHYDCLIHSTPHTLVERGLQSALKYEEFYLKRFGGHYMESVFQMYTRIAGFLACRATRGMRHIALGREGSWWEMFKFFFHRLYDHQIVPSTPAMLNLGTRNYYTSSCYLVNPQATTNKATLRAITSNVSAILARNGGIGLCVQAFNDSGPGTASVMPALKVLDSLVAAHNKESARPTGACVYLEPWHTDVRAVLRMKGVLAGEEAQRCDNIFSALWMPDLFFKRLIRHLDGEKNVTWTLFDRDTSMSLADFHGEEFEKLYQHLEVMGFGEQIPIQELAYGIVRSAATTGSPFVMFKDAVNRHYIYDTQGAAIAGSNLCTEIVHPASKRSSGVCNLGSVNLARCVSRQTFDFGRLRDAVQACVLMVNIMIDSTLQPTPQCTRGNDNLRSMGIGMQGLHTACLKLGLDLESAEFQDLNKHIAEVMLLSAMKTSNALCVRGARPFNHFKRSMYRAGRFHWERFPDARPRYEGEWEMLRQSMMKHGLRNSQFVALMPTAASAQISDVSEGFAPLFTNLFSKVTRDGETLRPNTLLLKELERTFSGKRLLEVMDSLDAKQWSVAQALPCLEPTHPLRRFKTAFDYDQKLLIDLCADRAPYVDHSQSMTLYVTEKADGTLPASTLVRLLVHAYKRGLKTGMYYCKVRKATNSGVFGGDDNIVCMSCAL
Assay: Inhibition of Herpes Simplex Virus (HSV, Type 1) Ribonucleotide Reductase
Assay type: biochemical, herpes simplex virus type 1 (strain F)
Conditions: concentration producing 50% of the maximal inhibition of enzyme activity; partially purified enzyme; mean of four assays
Where a SMILES comes first, the peptide text is derived from it. The star is where a group is joined. X5 = CC(C)C(CCCCc1ccccc1)C(=O)*; Pyrrolidide = C1CCN(*)C1
RECORDED_ENDPOINT: IC50 (µM)
API: value field is a number in µM; no unit string.

IN: For the compound "CCC(CC)C(=O)N[C@H](C(=O)N[C@@H](CC(=O)N1CCCC1)C(=O)N[C@@H](CC(=O)O)C(=O)NCCC(C)(C)C)c1ccccc1" , what IC50 is on record?
OUT: 40

IN: For the compound "CCC(CC)C(=O)N[C@@H](Cc1cccs1)C(=O)N[C@@H](CC(=O)N1CCCC1)C(=O)N[C@@H](CC(=O)O)C(=O)NCCC(C)(C)C" , what IC50 is on record?
OUT: 60

IN: For the compound CC[C@H](C)[C@H](NC(=O)C(CCCCc1ccccc1)C(C)C)C(=O)N[C@@H](CC(=O)N1CCCC1)C(=O)N[C@@H](CC(=O)O)C(=O)N[C@@H](CC(C)C)C(=O)O (stereo partly drawn) (X5-ID(Pyrrolidide)DL-OH) , what IC50 is on record?
OUT: 1.3

IN: For the compound "CC[C@H](C)[C@H](NC(=O)c1ccccc1-c1ccccc1)C(=O)N[C@@H](CC(=O)N1CCCC1)C(=O)N[C@@H](CC(=O)O)C(=O)N[C@@H](CC(C)C)c1nnn[nH]1" , what IC50 is on record?
OUT: 13.8

Sourced from patent US6313095A
